Species: Rattus norvegicus
METHOD NOTES: DrugMatrix - Regimen: Daily Repeat
Assay type: toxicity, organism-based, Sprague-Dawley
Parameters: regimen Daily Repeat, gender Male, age 6-8 weeks
CONDITION CONTEXT: in vivo, po, 1500 mg/kg, 120 h, tissue Blood, route oral GAVAGE, dose level High, time 5 day, vehicle .5 % CMC
A collection of compounds and their measured NUCLEATED RED BLOOD CELLS
RECORDED METRIC: NUCLEATED RED BLOOD CELLS

Cc1ccc(S(=O)(=O)NC(=O)NN2CC3CCCC3C2)cc1 (configuration not stated) [GLICLAZIDE] ... 0 /100WBC
CNC(=C[N+](=O)[O-])NCCSCc1ccc(CN(C)C)o1 ... 0 /100WBC
CO[C@H]1/C=C/O[C@@]2(C)Oc3c(C)c(O)c4c(c3C2=O)C2=NC3(CCN(CC(C)C)CC3)NC2=C(NC(=O)/C(C)=C\C=C\[C@H](C)[C@H](O)[C@@H](C)[C@@H](O)[C@@H](C)[C@H](OC(C)=O)[C@@H]1C)C4=O ... 0 /100WBC
C[C@]1(Cn2ccnn2)[C@H](C(=O)O)N2C(=O)C[C@H]2S1(=O)=O ... 0 /100WBC
NC(=O)c1cnccn1 [PYRAZINAMIDE] ... 0 /100WBC
Cc1cc(=O)n(-c2ccccc2)n1C [ANTIPYRINE] ... 0.33 /100WBC
O=C(N[C@H](CO)[C@H](O)c1ccc([N+](=O)[O-])cc1)C(Cl)Cl ... 0.33 /100WBC

###

Species on record: Rattus norvegicus
METHOD NOTES: DrugMatrix - Regimen: Daily Repeat
Type: toxicity, organism-based, Sprague-Dawley
Parameters: regimen Daily Repeat, gender Male, age 6-8 weeks
CONDITION CONTEXT: in vivo, po, 10 mg/kg, 72 h, tissue Blood, route oral GAVAGE, dose level Low, time 3 day, […]
RECORDED METRIC: ABSOLUTE EOSINOPHIL (CELLS/uL)

COc1ccc2cc([C@H](C)C(=O)O)ccc2c1 [NAPROXEN] ... 0
CCOC(=O)C1=C(C)NC(C)=C(C(=O)OC)C1c1cccc([N+](=O)[O-])c1 (centres undefined) [NITRENDIPINE] ... 0
COCCOC(=O)C1=C(C)NC(C)=C(C(=O)OC(C)C)C1c1cccc([N+](=O)[O-])c1 (centres undefined) [NIMODIPINE] ... 0
CC(C)CC(N(C)C)C1(c2ccc(Cl)cc2)CCC1 (centres undefined) [SIBUTRAMINE] ... 0

###

Species on record: Rattus norvegicus
METHOD NOTES: DrugMatrix - Regimen: Daily Repeat
Type: toxicity, organism-based, Sprague-Dawley
Parameters: regimen Daily Repeat, gender Male, age 6-8 weeks
CONDITION CONTEXT: in vivo, po, 0 mg/kg, 120 h, tissue Plasma, route oral GAVAGE, dose level Control, time 5 day, […]
A collection of compounds and their measured TOTAL PROTEIN
RECORDED METRIC: TOTAL PROTEIN (G/DL)

Cc1cccc(Nc2ccncc2S(=O)(=O)NC(=O)NC(C)C)c1 [TORSEMIDE] ... 6
C[C@H]1O[C@@H](O[C@H]2[C@@H](O)C[C@H](O[C@H]3[C@@H](O)C[C@H](O[C@H]4CC[C@@]5(C)[C@H](CC[C@@H]6[C@@H]5CC[C@]5(C)[C@@H](C7=CC(=O)OC7)CC[C@]65O)C4)O[C@@H]3C)O[C@@H]2C)C[C@H](O)[C@@H]1O [DIGITOXIN] ... 5.72
Clc1ccc(Cl)cc1 [1,4-DICHLOROBENZENE] ... 6.53
CCOC(=O)C1=C(C)NC(C)=C(C(=O)OC)C1c1cccc([N+](=O)[O-])c1 (centres undefined) [NITRENDIPINE] ... 5.9

###

Species: Rattus norvegicus
METHOD NOTES: DrugMatrix - Regimen: Daily Repeat
Format: toxicity, organism-based, Sprague-Dawley
Set-up: regimen Daily Repeat, gender Male, age 6-8 weeks
CONDITION CONTEXT: in vivo, ip, 0 mg/kg, 120 h, tissue Blood, route intraperitoneal, dose level Control, time 5 day, vehicle 100 % SALINE
RECORDED METRIC: ABSOLUTE LYMPHOCYTE

CCN[C@@H]1C[C@H](N)[C@@H](O[C@H]2OC(CN)=CC[C@H]2N)[C@H](O)[C@H]1O[C@H]1OC[C@](C)(O)[C@H](NC)[C@H]1O ... 6630 cells/µL

###

Species on record: Rattus norvegicus
METHOD NOTES: DrugMatrix - Regimen: Daily Repeat
Assay type: toxicity, organism-based, Sprague-Dawley
Set-up: regimen Daily Repeat, gender Male, age 6-8 weeks
CONDITION CONTEXT: in vivo, po, 0 mg/kg, 120 h, tissue Blood, route oral GAVAGE, dose level Control, time 5 day, […]
A collection of molecules and their measured MONOCYTE
RECORDED METRIC: MONOCYTE (%)

CC(=O)Nc1cccc(O)c1 ... 1
CC(C)(Oc1ccc(C2CCCc3ccccc32)cc1)C(=O)O (stereo not given) ... 2.83
O=C(c1ccc(OCCN2CCCCC2)cc1)c1c(-c2ccc(O)cc2)sc2cc(O)ccc12 ... 1.17
CC(C)Cc1ccc(C(C)C(=O)O)cc1 (stereo not given) ... 2.33
C[C@H]1O[C@@H](O[C@H]2[C@@H](O)C[C@H](O[C@H]3[C@@H](O)C[C@H](O[C@H]4CC[C@@]5(C)[C@H](CC[C@@H]6[C@@H]5CC[C@]5(C)[C@@H](C7=CC(=O)OC7)CC[C@]65O)C4)O[C@@H]3C)O[C@@H]2C)C[C@H](O)[C@@H]1O ... 0.33

###

A collection of compounds and their measured LEUKOCYTE COUNT
Organism: Rattus norvegicus
METHOD NOTES: DrugMatrix - Regimen: Daily Repeat
Assay type: toxicity, organism-based, Sprague-Dawley
Parameters: regimen Daily Repeat, gender Male, age 6-8 weeks
CONDITION CONTEXT: in vivo, po, 0 mg/kg, 72 h, tissue Blood, route oral GAVAGE, dose level Control, time 3 day, vehicle 100 % WATER
RECORDED METRIC: LEUKOCYTE COUNT

CC(C)C[C@H](NC(=O)[C@@H](O)[C@H](N)Cc1ccccc1)C(=O)O ... 15.17 x10E3/uL
Nc1ccn([C@@H]2CS[C@H](CO)O2)c(=O)n1 ... 9.43 x10E3/uL
C[C@@H]1C[C@@H]([C@H](O)CC2CC(=O)NC(=O)C2)C(=O)[C@@H](C)C1 [CYCLOHEXIMIDE] ... 16.3 x10E3/uL
COC(=O)C1=C(C)NC(C)=C(C(=O)OCC(C)C)C1c1ccccc1[N+](=O)[O-] (stereo not given) ... 8.43 x10E3/uL
ClC(Cl)Cl [CHLOROFORM] ... 13.43 x10E3/uL

###

Organism: Rattus norvegicus
METHOD NOTES: DrugMatrix - Regimen: Daily Repeat
Format: toxicity, organism-based, Sprague-Dawley
Design: regimen Daily Repeat, gender Male, age 6-8 weeks
CONDITION CONTEXT: in vivo, po, 10 mg/kg, 72 h, tissue Blood, route oral GAVAGE, dose level Low, time 3 day, […]
A collection of molecules and their measured ERYTHROCYTE COUNT
RECORDED METRIC: ERYTHROCYTE COUNT

CCOC(=O)C1=C(C)NC(C)=C(C(=O)OC)C1c1cccc([N+](=O)[O-])c1 (centres undefined) ... 5.43 x10E6/uL
COc1ccc2cc([C@H](C)C(=O)O)ccc2c1 ... 5.66 x10E6/uL
COCCOC(=O)C1=C(C)NC(C)=C(C(=O)OC(C)C)C1c1cccc([N+](=O)[O-])c1 (centres undefined) ... 5.25 x10E6/uL
CC(C)CC(N(C)C)C1(c2ccc(Cl)cc2)CCC1 (centres undefined) ... 5.37 x10E6/uL

###

Organism: Rattus norvegicus
METHOD NOTES: DrugMatrix - Regimen: Daily Repeat
Format: toxicity, organism-based, Sprague-Dawley
Parameters: regimen Daily Repeat, gender Male, age 6-8 weeks
CONDITION CONTEXT: in vivo, po, 0 mg/kg, 72 h, tissue Blood, route oral GAVAGE, dose level Control, time 3 day, vehicle .5 % CMC
RECORDED METRIC: LYMPHOCYTE

OC(CCN1CCCCC1)(c1ccccc1)C1CCCCC1 (stereo not given) ... 88%
C[C@]1(Cn2ccnn2)[C@H](C(=O)O)N2C(=O)C[C@H]2S1(=O)=O ... 89.33%
CNC(=C[N+](=O)[O-])NCCSCc1ccc(CN(C)C)o1 ... 91.67%
O=C1CCC(N2C(=O)c3ccccc3C2=O)C(=O)N1 (stereo not given) [THALIDOMIDE] ... 76.48%
Clc1ccc2c(c1)C(N1CCNCC1)=Nc1ccccc1O2 ... 84.83%
